Hello, the source for this data is PubChem BioAssay (NCI), in case you need it.

- Test system: LOX IMVI melanoma
- ASSAY COMMENT: NCI tumour cell line growth inhibition, 48 h
OUTCOME MEASURE: log10 TGI (log10 of the value in µM)
Values reflect log10 of reported TGI (µM).

Q: Which measured log10 TGI value corresponds to N#Cc1c(N2CCN(c3ccc([N+](=O)[O-])cc3)CC2)[n+](=O)c2ccc(Cl)cc2n1[O-] ?
Ans: 0.06

Q: Consider the compound shown here: CCOC(=O)C1=C(c2ccccc2)N(c2ccc(OC)cc2)[C@]2(C#N)C(O)=C(Cl)C(Cl)=C(O)[C@]12C#N What is its recorded log10 TGI?
Ans: 1.49

Q: Tell me the measured log10 TGI of COc1cc2c3c(n(C)c(=O)c2cc1OC)-c1cc2c(cc1/C3=C/[C@H](N)CCCCN)OCO2 , please.
Ans: 0.37

Q: Query: log10 TGI; subject: O=[N+]([O-])/C=C/c1ccc([N+](=O)[O-])cc1
Ans: 0.44

Q: Could you tell me which log10 TGI is on file for NCCCCNC1(c2cc3ccccc3s2)CCCCC1 ?
Ans: 0.61

Q: Would you kindly share the measured log10 TGI for COc1cc(-c2nc3nc(N4CCN(C)CC4)ccc3[nH]2)c(OC)c2[nH]c(COC(C)=O)nc12 ?
Ans: 1.87

Q: Give the measured log10 TGI of CCOC(=O)/C(=C\c1ccc(F)cc1)C(C)=O .
Ans: 1.56

Q: Look at this compound and give its reported log10 TGI. CN(C)CCn1c(=O)c2ccc3c4c(nn3CCN(C)C)c3ccccc3n(c1=O)c24
Ans: 0.14

Q: Using the record for CC(=O)NC1=C(NCc2ccc(Cl)cc2)C(=O)c2ccccc2C1=O , report its log10 TGI.
Ans: 1.32

Q: # get_value(readout='log10 TGI', item= CN(C)CCOC1(CC2CCCCC2)CCC(C(C)(C)C)CC1 (stereo not drawn) )
Ans: 0.83

Q: Suppose we examine the compound COc1ccc(C2=CN3CCC[C@H]3C=C2c2cc(O)c(OC)c(OC)c2)cc1OC ; what log10 TGI value has been reported?
Ans: -2.14
